Data provenance: the nanobody polyreactivity screen of Harvey et al. (2022)

experiment: yeast display, Sf9 membrane polyspecificity reagent, FACS + sequencing; frameworks hold sequencing errors

Construct Sequence | polyreactivity (PSR sort gate)
QVQLVESGGGLVQAGGSLRLSCAASGAIFYYYAMGWYRQAPGKERELVATITASGGSTFYADSVKGRFTISRDNAKNTVYLQMNSLKPEDTAVYYCAATVYYTYWGQGTQVTVSS | low polyreactivity
QVQLVESGGGLVQAGGSLRLSCAASGGIFVQYTMGWYRQAPGKERELVAAISTGGSTYYADSVKGRFTISRDNAKNTVYLQMNSLKPEDTAVYYCAVVYRSQYSRYTSQWKEYYWGQGTQVTVSS | low polyreactivity

----------
assay: yeast display, Sf9 membrane polyspecificity reagent, FACS + sequencing; frameworks hold sequencing errors
Measured Property: polyreactivity (PSR sort gate)

Construct Sequence | polyreactivity (PSR sort gate)
QVQLVESGGGLVQAGGSLRLTCAASGSTFVRYVMGWYRQAPGKERELVAAISRRGGSTYYADSVKGRFTISRDNANNTVYLQMNSLKPEDTAVYYCARTVGYRTLLESDSWGQGTQVTVSS | high polyreactivity
QVHLVESGGVLVQAGGSLRLSCAASGSIFAKYAMGWYRQAPGKERELVAAISRSSVRTRYADSVKGRFTISRDNAKNTVYLQMNSLKPADTAVYYCNAYYRSYAYSHLDYWGQGTQVTVSS | high polyreactivity
QVQLVESGGGLFQAGGSLRLRCAATGLIFDLYAMGWYRQAPGKERELVAVISYDGGSTYYADSVKGRFTISRDNAKNTVYLQMNSLKPEETAVYYCNTFDGLVSPSDLYDYWGQGTQVTVSS | low polyreactivity
QFQLVESGGGLVQAGGSLRLSCAASGGIFTDYTMGWYRQAPGKERELVAAITWTGGSTYYADSVKGRFTISRDNAKNTVYLQMNILKPEDTAVYYCAADDYWVNLDYWGQGTQVTVSS | low polyreactivity
QVQLVESGGGIVQAGGSLRLICAASGITFTVYAMGWDRTAPWKARELVAASCSSGSTTYADSVKGRFTFSRDNAKNTVYLQMNSVKPQDPAVYYCAAEGYYRFSTAYFRKKYEYWGQGTQVTVSS | low polyreactivity

// moving on: another record for polyreactivity (PSR sort gate)
Record QDQLVESGGGLVQAGGSLRLSCAASGSIFHGYGRGWYRQAPGKERELVASITWIGGDTYYADSVKGRFTISRDNPKNTVYLQMNSLKPEDTAVYYCNAEWVVTYIYDYWGQGTQVTVSS , field polyreactivity (PSR sort gate): low polyreactivity
